Biological target: human P2X2/3 receptors (Homo sapiens, UniProt P56373+Q9UBL9)
Construct: expressed in transfected cells; host or cells: human astrocytoma 1321N1 (1312N1 [sic])
Sequence (P56373 1-397): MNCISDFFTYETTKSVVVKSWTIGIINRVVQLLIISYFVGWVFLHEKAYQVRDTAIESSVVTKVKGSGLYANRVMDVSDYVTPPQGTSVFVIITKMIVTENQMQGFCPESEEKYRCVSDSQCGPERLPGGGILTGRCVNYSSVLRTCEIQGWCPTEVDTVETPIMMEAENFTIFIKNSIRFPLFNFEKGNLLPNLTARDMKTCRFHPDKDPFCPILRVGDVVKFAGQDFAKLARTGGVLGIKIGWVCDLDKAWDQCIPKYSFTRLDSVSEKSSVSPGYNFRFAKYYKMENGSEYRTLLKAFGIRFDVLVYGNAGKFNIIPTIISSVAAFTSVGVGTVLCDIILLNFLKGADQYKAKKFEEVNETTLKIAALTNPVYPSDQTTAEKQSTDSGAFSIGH
Sequence (Q9UBL9 1-471): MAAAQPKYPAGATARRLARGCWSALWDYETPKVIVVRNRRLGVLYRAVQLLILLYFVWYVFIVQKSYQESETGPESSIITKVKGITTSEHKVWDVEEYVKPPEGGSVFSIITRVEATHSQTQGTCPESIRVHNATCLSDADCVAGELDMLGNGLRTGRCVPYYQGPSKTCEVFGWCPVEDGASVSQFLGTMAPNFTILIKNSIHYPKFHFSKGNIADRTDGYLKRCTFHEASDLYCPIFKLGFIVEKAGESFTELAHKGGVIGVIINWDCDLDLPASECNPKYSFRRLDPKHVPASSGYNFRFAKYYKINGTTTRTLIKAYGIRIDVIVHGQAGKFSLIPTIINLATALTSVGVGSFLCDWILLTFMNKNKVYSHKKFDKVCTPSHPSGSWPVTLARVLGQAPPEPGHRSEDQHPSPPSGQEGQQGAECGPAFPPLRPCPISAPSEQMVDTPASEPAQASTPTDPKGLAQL
Assay: Intracellular calcium measurement, antagonist activity at human P2X2/3 receptors (hP2X23 1321N1), Fluo8
Type: cell-based
Settings: column 4); 1321N1 cells, human P2X2/3, Fluo8, agonist ATP at EC50; read-out: 4) hP2X2/3 IC50 [nM] (1321N1)
MEASUREMENT NAME: IC50

Recorded results for 2 compounds are shown here.
CCc1cc2n(CC(=O)Nc3ccc(F)cn3)c3c(c(=O)n2n1)CN(C[C@H]1CCCN1)C3=O [Example 233]
> 32000 nM
CCc1cc2n(CC(=O)Nc3ccc(F)cn3)c3c(c(=O)n2n1)CN(C[C@@H]1COCCN1C(C)C)C3=O [Example 260]
> 20600 nM

Moving on to another compound below.
Prompt line: Recorded IC50 for CCc1cc2n(CC(=O)Nc3ccc(F)cn3)c3c(c(=O)n2n1)CN(C[C@H]1CNCCO1)C3=O [Example 247] , please?
Response line: > 32000 nM
